These entries and their values trace back to patent US20240043404A1.

- System: RS4;11 cells
- assay.info: RS4;11 cell viability assay (CellTiter Glo);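 also: acute lymphoblastic leukemia line RS4,11, EC50 derived from percentage of viable cells after treatment relative to untreated controls, cell killing taken as a measure of Bcl-2 inhibition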
- Format: cell-based, human
- condition.details: Homo sapiens, RS4-11, 48 h, 50,000 cells per well, 10% human serum, 48 hours; read-out: RS4; 11 EC50 Values
Listed here are compounds together with their documented pEC50.
API: returns pEC50 as number; meaning -log10 of concentration in mol/L.

[
  {
    "compound": "CC1(C)CCC(CN2CCN(c3ccc(C(=O)NS(=O)(=O)c4ccc(O[C@H]5CC[C@H](N6CCOCC6)CC5)c([N+](=O)[O-])c4)c(Oc4cnc5[nH]ccc5c4)c3)CC2)=C(c2ccc(Cl)cc2)C1",
    "pEC50": 7.23
  },
  {
    "compound": "CC1(C)CCC(CN2CCN(c3ccc(C(=O)NS(=O)(=O)c4ccc(NC5CCS(=O)(=O)CC5)c([N+](=O)[O-])c4)c(Oc4cnc5[nH]ccc5c4)c3)CC2)=C(c2ccc(Cl)cc2)C1",
    "pEC50": 7.32
  },
  {
    "compound": "CC(C)N1CCC2(CCC(c3ccc(Cl)cc3)=C(CN3CCN(c4ccc(C(=O)NS(=O)(=O)c5ccc(NCC6CCOCC6)c(C(F)(F)F)c5)c(Oc5cnc6[nH]ccc6c5)c4)CC3)C2)CC1",
    "pEC50": 6.68
  }
]

Sample CC1(C)CCC(CN2CCN(c3ccc(C(=O)NS(=O)(=O)c4ccc(NCC5COCCN5)c([N+](=O)[O-])c4)c(Oc4cnc5[nH]ccc5c4)c3)CC2)=C(c2ccc(Cl)cc2)C1 (stereo not shown) — what was its pEC50?
7.72

Field request: pEC50 | item: CC1(C)CCC(CN2CCN(c3ccc(C(=O)NS(=O)(=O)c4ccc(NCC5CN(C6COC6)CCO5)c([N+](=O)[O-])c4)c(Oc4cnc5[nH]ccc5c4)c3)CC2)=C(c2ccc(Cl)cc2)C1 (stereo not shown)
8.81

What does the data say about its pEC50? Entry: CC1(C)CCC(CN2CCN(c3ccc(C(=O)NS(=O)(=O)c4ccc(OCC5(F)CCN(C6COC6)CC5)c(Cl)c4)c(Oc4cnc5[nH]ccc5c4)c3)CC2)=C(c2ccc(Cl)cc2)C1
7.91

Sample COc1ccc(CNc2ccc(S(=O)(=O)NC(=O)c3ccc(N4CCN(CC5=C(c6ccc(Cl)cc6)CC(C)(C)CC5)CC4)cc3Oc3cnc4[nH]ccc4c3)cc2[N+](=O)[O-])cc1 — what was its pEC50?
6.90

If you can, please state the reported pEC50 value of CC1(C)CCC(CN2CCN(c3ccc(C(=O)NS(=O)(=O)c4cnc(OC[C@@H]5CCN(C(CF)CF)C5)c(Cl)c4)c(Oc4cnc5[nH]ccc5c4)c3)CC2)=C(c2ccc(Cl)cc2)C1 .
6.34

Dear colleague, I am looking for the recorded pEC50 of the following compound: CC1(C)CCC(CN2CCN(c3ccc(C(=O)NS(=O)(=O)c4ccc(OCC5COCCN5C5CCOCC5)c([N+](=O)[O-])c4)c(Oc4cnc5[nH]ccc5c4)c3)CC2)=C(c2ccc(Cl)cc2)C1 (stereo not shown)
7.15

Fill in the blank: the reported pEC50 of CC1(C)CCC(CN2CCN(c3ccc(C(=O)NS(=O)(=O)c4cnc(NCC5CCOCC5)c(C#N)c4)c(Oc4cnc5[nH]ccc5c4)c3)CC2)=C(c2ccc(Cl)cc2)C1 is ____.
6.08

Look up pEC50 for this compound: CC1(C)CCC(CN2CCN(c3ccc(C(=O)NS(=O)(=O)c4ccc(N5CCC(N6CCOCC6)CC5)c([N+](=O)[O-])c4)c(Oc4cnc5[nH]ccc5c4)c3)CC2)=C(c2ccc(Cl)cc2)C1
6.74

Return reported pEC50; argument: O=C(NS(=O)(=O)c1ccc(NCCCN2CCOCC2)c([N+](=O)[O-])c1)c1ccc(N2CCN(Cc3ccccc3-c3ccc(Cl)cc3)CC2)cc1Oc1cnc2[nH]ccc2c1
6.11

Bench note: what pEC50 did CC1(C)CCC(CN2CCN(c3ccc(C(=O)NS(=O)(=O)c4cnc(OCC5COCCO5)c(Br)c4)c(Oc4cnc5[nH]ccc5c4)c3)CC2)=C(c2ccc(Cl)cc2)C1 (stereo not shown) show?
6.50
